pIC50: −log10 of the molar value.
The following compounds have recorded pIC50 on p53 ubiquitination (GST-tagged HDM2) (Homo sapiens, UniProt Q00987).
Sequence (Q00987 whole entry): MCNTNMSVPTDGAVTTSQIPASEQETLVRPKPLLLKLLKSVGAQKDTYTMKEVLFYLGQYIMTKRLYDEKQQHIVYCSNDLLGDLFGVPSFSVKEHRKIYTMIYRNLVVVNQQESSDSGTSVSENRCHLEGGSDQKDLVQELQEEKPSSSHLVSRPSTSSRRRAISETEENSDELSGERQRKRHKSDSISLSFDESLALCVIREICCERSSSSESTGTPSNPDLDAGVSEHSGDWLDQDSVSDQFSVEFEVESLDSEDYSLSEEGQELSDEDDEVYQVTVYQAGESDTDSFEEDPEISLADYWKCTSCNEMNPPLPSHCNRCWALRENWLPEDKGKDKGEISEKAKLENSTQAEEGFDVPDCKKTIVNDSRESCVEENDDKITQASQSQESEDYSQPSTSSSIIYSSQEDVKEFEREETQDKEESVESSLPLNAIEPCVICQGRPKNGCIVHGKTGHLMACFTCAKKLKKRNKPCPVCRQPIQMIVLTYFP
observed_property: pIC50

>>> numeric_readout("CC12CCC3c4ccc(O)cc4CCC3C1CC1=C2NC(=S)NC1c1ccc(Cl)cc1 (centres unmarked)")
4.34
>>> numeric_readout("CC12CCC3c4ccc(O)cc4CCC3C1CC1C2=NN(C(N)=S)C1c1ccccc1Cl (centres unmarked)")
4.26
>>> numeric_readout("CC12CCC3c4ccc(O)cc4CCC3C1CC1=C2NC(=O)NC1c1ccccc1Cl (centres unmarked)")
4.32
>>> numeric_readout("CC12CCC3c4ccc(O)cc4CCC3C1CC1=C2NC(=S)NC1c1ccccc1Cl (centres unmarked)")
4.44
>>> numeric_readout("CC12CCC3c4ccc(O)cc4CCC3C1CC1C2=NN(C(N)=O)C1c1ccc(Cl)cc1 (centres unmarked)")
4.11
>>> numeric_readout("CC12CCC3c4ccc(O)cc4CCC3C1CC1C2=NN(C(N)=O)C1c1ccccc1Cl (centres unmarked)")
4.18
>>> numeric_readout("CC12CCC3c4ccc(O)cc4CCC3C1CC1=C2NC(=NC#N)NC1c1ccc(Cl)cc1 (centres unmarked)")
4.53
>>> numeric_readout("CC12CCC3c4ccc(O)cc4CCC3C1CC1=C2NC(=O)NC1c1ccc(Cl)cc1 (centres unmarked)")
4.27

---

tgt: VEGFR-2 (Homo sapiens, UniProt P35968)
Sequence (P35968 20-1356): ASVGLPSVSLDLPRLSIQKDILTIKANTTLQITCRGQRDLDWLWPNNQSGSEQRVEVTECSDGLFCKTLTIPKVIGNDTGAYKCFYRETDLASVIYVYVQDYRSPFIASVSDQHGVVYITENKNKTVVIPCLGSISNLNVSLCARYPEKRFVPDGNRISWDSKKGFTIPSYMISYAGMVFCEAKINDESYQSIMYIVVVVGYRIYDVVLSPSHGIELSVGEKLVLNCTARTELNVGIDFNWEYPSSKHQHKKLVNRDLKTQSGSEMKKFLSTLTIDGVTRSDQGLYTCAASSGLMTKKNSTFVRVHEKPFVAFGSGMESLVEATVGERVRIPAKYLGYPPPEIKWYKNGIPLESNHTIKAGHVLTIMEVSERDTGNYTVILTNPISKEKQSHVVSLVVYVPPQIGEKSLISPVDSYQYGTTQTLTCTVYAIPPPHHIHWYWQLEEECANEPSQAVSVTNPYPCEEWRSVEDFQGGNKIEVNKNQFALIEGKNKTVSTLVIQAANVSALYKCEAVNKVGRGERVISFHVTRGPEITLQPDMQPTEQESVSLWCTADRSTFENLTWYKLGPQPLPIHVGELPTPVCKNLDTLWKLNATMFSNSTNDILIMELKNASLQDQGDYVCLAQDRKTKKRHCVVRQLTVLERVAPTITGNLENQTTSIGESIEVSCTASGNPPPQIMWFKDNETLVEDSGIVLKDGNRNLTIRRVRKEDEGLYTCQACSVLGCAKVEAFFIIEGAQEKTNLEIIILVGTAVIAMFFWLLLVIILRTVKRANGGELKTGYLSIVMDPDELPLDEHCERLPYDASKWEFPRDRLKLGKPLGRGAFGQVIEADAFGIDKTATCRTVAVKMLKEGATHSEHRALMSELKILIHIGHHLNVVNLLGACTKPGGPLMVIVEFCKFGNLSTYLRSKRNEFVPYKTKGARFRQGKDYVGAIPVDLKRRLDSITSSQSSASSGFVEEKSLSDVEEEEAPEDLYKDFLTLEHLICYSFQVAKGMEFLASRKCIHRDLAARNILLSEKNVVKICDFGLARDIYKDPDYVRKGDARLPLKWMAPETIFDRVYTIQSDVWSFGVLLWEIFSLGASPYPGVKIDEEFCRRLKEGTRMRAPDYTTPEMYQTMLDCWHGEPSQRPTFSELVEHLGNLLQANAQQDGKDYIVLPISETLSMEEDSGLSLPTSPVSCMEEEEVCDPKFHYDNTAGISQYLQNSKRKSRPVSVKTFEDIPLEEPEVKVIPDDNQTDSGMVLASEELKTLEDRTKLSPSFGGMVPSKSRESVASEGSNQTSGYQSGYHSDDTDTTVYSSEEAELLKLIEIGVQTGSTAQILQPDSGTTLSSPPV
pIC50: −log10 of the molar value.
observed_property: pIC50

>>> numeric_readout("CC12CCC3c4ccc(O)cc4CCC3C1CC1=C2NC(=N)NC1c1ccc(Cl)cc1 (stereo not shown)")
7.54
>>> numeric_readout("Oc1cc(O)c2cc(O)c(-c3cc(O)c(O)c(O)c3)[o+]c2c1 [Delphinidin, reference compound]")
5.29
>>> numeric_readout("CC12CCC3c4ccc(O)cc4CCC3C1CC1=C2NC(=N)NC1c1ccccc1Cl (stereo not shown)")
7.57
>>> numeric_readout("CC12CCC3c4ccc(O)cc4CCC3C1CC1C2=NN(C(N)=S)C1c1ccc(Cl)cc1 (stereo not shown)")
7.28
>>> numeric_readout("CC12CCC3c4ccc(O)cc4CCC3C1CC1=C2NC(=S)NC1c1ccccc1Cl (stereo not shown)")
7.43
>>> numeric_readout("CC12CCC3c4ccc(O)cc4CCC3C1CC1=C2NC(=O)NC1c1ccc(Cl)cc1 (stereo not shown)")
7.32
>>> numeric_readout("CC12CCC3c4ccc(O)cc4CCC3C1CC1=C2NC(=O)NC1c1ccccc1Cl (stereo not shown)")
7.33
>>> numeric_readout("CC12CCC3c4ccc(O)cc4CCC3C1CC1C2=NN(C(N)=O)C1c1ccc(Cl)cc1 (stereo not shown)")
7.24
>>> numeric_readout("CC12CCC3c4ccc(O)cc4CCC3C1CC1C2=NN(C(N)=O)C1c1ccccc1Cl (stereo not shown)")
7.26
>>> numeric_readout("CC12CCC3c4ccc(O)cc4CCC3C1CC1C2=NN(C(N)=S)C1c1ccccc1Cl (stereo not shown)")
7.29
>>> numeric_readout("CC12CCC3c4ccc(O)cc4CCC3C1CC1=C2NC(=NC#N)NC1c1ccc(Cl)cc1 (stereo not shown)")
7.48
>>> numeric_readout("CC12CCC3c4ccc(O)cc4CCC3C1CC1=C2NC(=S)NC1c1ccc(Cl)cc1 (stereo not shown)")
7.37
>>> numeric_readout("CC12CCC3c4ccc(O)cc4CCC3C1CC1=C2NC(=NC#N)NC1c1ccccc1Cl (stereo not shown)")
7.51

---

In this section, each of the compounds is paired with its reported IC50.
tgt: UniProt:P00533
Sequence (P00533 25-1210): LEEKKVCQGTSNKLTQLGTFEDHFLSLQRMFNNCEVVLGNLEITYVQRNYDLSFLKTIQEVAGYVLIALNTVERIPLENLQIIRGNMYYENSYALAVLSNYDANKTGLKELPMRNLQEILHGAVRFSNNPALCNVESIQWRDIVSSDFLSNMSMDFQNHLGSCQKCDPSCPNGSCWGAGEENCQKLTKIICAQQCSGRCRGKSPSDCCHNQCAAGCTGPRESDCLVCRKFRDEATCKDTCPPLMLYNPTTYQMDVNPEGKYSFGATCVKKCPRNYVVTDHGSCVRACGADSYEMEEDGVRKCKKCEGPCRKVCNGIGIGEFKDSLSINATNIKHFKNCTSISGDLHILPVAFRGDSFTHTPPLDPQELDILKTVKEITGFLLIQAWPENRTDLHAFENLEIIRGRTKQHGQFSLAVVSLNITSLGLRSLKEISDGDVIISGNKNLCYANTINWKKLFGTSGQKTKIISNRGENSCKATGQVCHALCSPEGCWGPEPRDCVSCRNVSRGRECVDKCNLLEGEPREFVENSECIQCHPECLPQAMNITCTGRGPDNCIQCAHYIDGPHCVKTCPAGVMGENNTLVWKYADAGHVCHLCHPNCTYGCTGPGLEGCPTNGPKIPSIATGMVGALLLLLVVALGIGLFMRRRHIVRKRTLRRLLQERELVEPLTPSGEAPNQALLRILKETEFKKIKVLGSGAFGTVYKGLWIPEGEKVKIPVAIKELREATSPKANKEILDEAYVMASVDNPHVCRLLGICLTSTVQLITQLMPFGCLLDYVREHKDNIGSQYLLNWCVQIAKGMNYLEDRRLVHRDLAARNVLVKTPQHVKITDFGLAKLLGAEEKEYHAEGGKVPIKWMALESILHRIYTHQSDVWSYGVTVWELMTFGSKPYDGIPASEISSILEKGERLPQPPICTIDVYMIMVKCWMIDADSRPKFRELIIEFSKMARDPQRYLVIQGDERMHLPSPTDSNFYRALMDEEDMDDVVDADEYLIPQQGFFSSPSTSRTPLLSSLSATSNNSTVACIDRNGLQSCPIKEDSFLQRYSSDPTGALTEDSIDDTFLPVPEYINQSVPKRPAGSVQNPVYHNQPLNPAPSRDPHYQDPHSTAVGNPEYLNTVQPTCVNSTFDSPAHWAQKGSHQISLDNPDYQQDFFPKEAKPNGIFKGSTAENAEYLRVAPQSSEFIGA
observed_property: IC50 (nM)

>>> numeric_readout("CC12CCC3c4ccc(O)cc4CCC3C1CC1C2=NN(C(N)=S)C1c1ccc(Cl)cc1 (centres unmarked)")
177
>>> numeric_readout("CC12CCC3c4ccc(O)cc4CCC3C1CC1=C2NC(=O)NC1c1ccccc1Cl (centres unmarked)")
127
>>> numeric_readout("CC12CCC3c4ccc(O)cc4CCC3C1CC1C2=NN(C(N)=S)C1c1ccccc1Cl (centres unmarked)")
166
>>> numeric_readout("CC12CCC3c4ccc(O)cc4CCC3C1CC1C2=NN(C(N)=O)C1c1ccccc1Cl (centres unmarked)")
188
>>> numeric_readout("CC12CCC3c4ccc(O)cc4CCC3C1CC1=C2NC(=N)NC1c1ccc(Cl)cc1 (centres unmarked)")
88

// provenance: paper PMC6385123
